Each recorded value in this set is attributed to paper PMC9213889.

Target sequence: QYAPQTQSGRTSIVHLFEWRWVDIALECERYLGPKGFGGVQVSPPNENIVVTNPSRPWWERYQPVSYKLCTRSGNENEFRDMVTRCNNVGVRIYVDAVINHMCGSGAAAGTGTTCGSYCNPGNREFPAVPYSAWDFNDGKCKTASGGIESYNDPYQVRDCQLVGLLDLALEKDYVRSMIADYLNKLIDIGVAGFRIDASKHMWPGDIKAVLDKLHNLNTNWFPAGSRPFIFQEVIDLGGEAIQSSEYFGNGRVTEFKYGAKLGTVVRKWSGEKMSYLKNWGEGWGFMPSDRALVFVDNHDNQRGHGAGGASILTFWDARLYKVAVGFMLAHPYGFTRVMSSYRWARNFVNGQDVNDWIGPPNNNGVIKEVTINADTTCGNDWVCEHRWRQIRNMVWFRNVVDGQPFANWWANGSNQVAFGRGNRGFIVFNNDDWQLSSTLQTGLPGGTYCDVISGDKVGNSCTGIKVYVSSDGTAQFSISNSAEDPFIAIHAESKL
Returns: string. Value is label 1 if measured IC50 is below 20 µM, and label 0 if it is greater than or equal to it.

Prompt line: In plain terms, does CC1(C)CC[C@]2(C(=O)O)CC[C@]3(C)C(=CCC4[C@@]5(C)C/C(=C\c6ccc([N+](=O)[O-])cc6)[C@H](O)C(C)(C)C5CC[C@]43C)C2C1 (stereo partly drawn) [Compound 4s] come in under 20 µM for IC50?
Response line: label 0

Prompt line: In plain terms, does CC1(C)CC[C@]2(C(=O)O)CC[C@]3(C)C(=CCC4[C@@]5(C)C/C(=C\c6cccc([N+](=O)[O-])c6)[C@H](O)C(C)(C)C5CC[C@]43C)C2C1 (stereo partly drawn) [Compound 4r] come in under 20 µM for IC50?
Response line: label 0

Prompt line: In plain terms, does CC1(C)CC[C@]2(C(=O)O)CC[C@]3(C)C(=CCC4[C@@]5(C)C/C(=C\c6ccccc6Br)[C@H](O)C(C)(C)C5CC[C@]43C)C2C1 (stereo partly drawn) [Compound 4n] come in under 20 µM for IC50?
Response line: label 1

Prompt line: In plain terms, does CC1(C)CC[C@]2(C(=O)O)CC[C@]3(C)C(=CCC4[C@@]5(C)C/C(=C\c6ccccc6F)[C@H](O)C(C)(C)C5CC[C@]43C)C2C1 (stereo partly drawn) [Compound 4h] come in under 20 µM for IC50?
Response line: label 1

Prompt line: In plain terms, does CC1(C)CC[C@]2(C(=O)O)CC[C@]3(C)C(=CCC4[C@@]5(C)C/C(=C\c6cccc(Cl)c6)[C@H](O)C(C)(C)C5CC[C@]43C)C2C1 (stereo partly drawn) [Compound 4l] come in under 20 µM for IC50?
Response line: label 1

Prompt line: In plain terms, does CC1(C)CC[C@]2(C(=O)O)CC[C@]3(C)C(=CCC4[C@@]5(C)C/C(=C\c6ccc(F)cc6)[C@H](O)C(C)(C)C5CC[C@]43C)C2C1 (stereo partly drawn) [Compound 4j] come in under 20 µM for IC50?
Response line: label 1

Prompt line: In plain terms, does CC1(C)CC[C@]2(C(=O)O)CC[C@]3(C)C(=CCC4[C@@]5(C)C/C(=C\c6ccccc6Cl)[C@H](O)C(C)(C)C5CC[C@]43C)C2C1 (stereo partly drawn) [Compound 4k] come in under 20 µM for IC50?
Response line: label 0

Prompt line: In plain terms, does CC1(C)CCC2(C(=O)O)CCC3(C)C(=CCC4C5(C)CC(=Cc6cccc(Br)c6)C(O)C(C)(C)C5CCC43C)C2C1 (stereo not drawn) [Compound 4o] come in under 20 µM for IC50?
Response line: label 1

---

Some molecules, each annotated with its measured melting point.

Here is how some molecules turned out for melting point.
>  <Molecule>
CC1(C)CC[C@]2(C(=O)O)CC[C@]3(C)C(=CCC4[C@@]5(C)C/C(=C\c6cccc(F)c6)[C@H](O)C(C)(C)C5CC[C@]43C)C2C1 (stereo partly drawn)

>  <melting point>
157 to 158 °C

$$$$
>  <Molecule>
CC1(C)CC[C@]2(C(=O)O)CC[C@]3(C)C(=CCC4[C@@]5(C)C/C(=C\c6ccccc6[N+](=O)[O-])[C@H](O)C(C)(C)C5CC[C@]43C)C2C1 (stereo partly drawn)

>  <melting point>
197 to 198 °C

$$$$
>  <Molecule>
CC1(C)CC[C@]2(C(=O)O)CC[C@]3(C)C(=CCC4[C@@]5(C)C/C(=C\c6ccc(F)cc6)[C@H](O)C(C)(C)C5CC[C@]43C)C2C1 (stereo partly drawn)

>  <melting point>
226 to 227 °C

$$$$
>  <Molecule>
Cc1ccccc1/C=C1\C[C@@]2(C)C(CC[C@]3(C)C2CC=C2C4CC(C)(C)CC[C@]4(C(=O)O)CC[C@]23C)C(C)(C)[C@H]1O (stereo partly drawn)

>  <melting point>
210 to 211 °C

$$$$
>  <Molecule>
COc1ccccc1/C=C1\C[C@@]2(C)C(CC[C@]3(C)C2CC=C2C4CC(C)(C)CC[C@]4(C(=O)O)CC[C@]23C)C(C)(C)[C@H]1O (stereo partly drawn)

>  <melting point>
200 to 201 °C

$$$$

Record summary for Cc1ccc(/C=C2\C[C@@]3(C)C(CC[C@]4(C)C3CC=C3C5CC(C)(C)CC[C@]5(C(=O)O)CC[C@]34C)C(C)(C)[C@H]2O)cc1 (stereo partly drawn) : reported melting point = 146 to 147 °C

---

Some compounds, each annotated with its measured IC50.
# Experimental system: α-glucosidase from Saccharomyces cerevisiae (EC 3.2.1.20) (Saccharomyces cerevisiae, UniProt P53341)
# Sequence (P53341 whole entry): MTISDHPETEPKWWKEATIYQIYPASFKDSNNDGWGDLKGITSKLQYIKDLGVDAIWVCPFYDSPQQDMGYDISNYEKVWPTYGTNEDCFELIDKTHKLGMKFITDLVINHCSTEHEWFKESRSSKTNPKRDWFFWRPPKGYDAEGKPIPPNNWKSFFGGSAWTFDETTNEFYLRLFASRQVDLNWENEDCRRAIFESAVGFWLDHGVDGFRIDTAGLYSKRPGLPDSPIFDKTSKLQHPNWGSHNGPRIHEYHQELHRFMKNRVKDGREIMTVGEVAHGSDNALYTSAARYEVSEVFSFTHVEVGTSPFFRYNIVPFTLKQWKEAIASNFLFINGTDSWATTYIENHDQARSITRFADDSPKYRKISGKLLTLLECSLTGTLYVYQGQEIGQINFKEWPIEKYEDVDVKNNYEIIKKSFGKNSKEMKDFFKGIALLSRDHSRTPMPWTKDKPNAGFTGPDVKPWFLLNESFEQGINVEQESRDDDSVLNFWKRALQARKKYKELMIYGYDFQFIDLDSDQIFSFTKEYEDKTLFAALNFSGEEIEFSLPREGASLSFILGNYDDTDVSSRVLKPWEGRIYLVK
# Measurement notes: biochemical
# Format: biochemical
# Measurement context: mean ± SD, quadruplicate; PBS pH 6.8, 37°C, 5% DMSO; read-out: α-glucosidase inhibition (IC50 μM)
Write the number in µM without appending the unit.

Here is how some compounds turned out for IC50.
>  <Compound>
CC1(C)CCC2(C(=O)O)CCC3(C)C(=CCC4C5(C)CC(=Cc6cccc(Br)c6)C(O)C(C)(C)C5CCC43C)C2C1 (stereo not drawn)

>  <Measured number>
0.52

$$$$
>  <Compound>
COc1cccc(/C=C2\C[C@@]3(C)C(CC[C@]4(C)C3CC=C3C5CC(C)(C)CC[C@]5(C(=O)O)CC[C@]34C)C(C)(C)[C@H]2O)c1 (stereo partly drawn)

>  <Measured number>
1.63

$$$$
>  <Compound>
CC1(C)CC[C@]2(C(=O)O)CC[C@]3(C)C(=CCC4[C@@]5(C)C/C(=C\c6ccccc6)[C@H](O)C(C)(C)C5CC[C@]43C)C2C1 (stereo partly drawn)

>  <Measured number>
1.9

$$$$
>  <Compound>
CC1(C)CC[C@]2(C(=O)O)CC[C@]3(C)C(=CCC4[C@@]5(C)C/C(=C\c6cccc(Cl)c6)[C@H](O)C(C)(C)C5CC[C@]43C)C2C1 (stereo partly drawn)

>  <Measured number>
0.45

$$$$

Record summary for CC1(C)CC[C@]2(C(=O)O)CC[C@]3(C)C(=CCC4[C@@]5(C)C/C(=C\c6ccc(F)cc6)[C@H](O)C(C)(C)C5CC[C@]43C)C2C1 (stereo partly drawn) : reported IC50 = 1.23

Record summary for CC1(C)CC[C@]2(C(=O)O)CC[C@]3(C)C(=CCC4[C@@]5(C)C/C(=C\c6cccc([N+](=O)[O-])c6)[C@H](O)C(C)(C)C5CC[C@]43C)C2C1 (stereo partly drawn) : reported IC50 = 1.08

---

# Experimental system: α-glucosidase from Saccharomyces cerevisiae (EC 3.2.1.20) (Saccharomyces cerevisiae, UniProt P53341)
# Measurement notes: biochemical
# Type: biochemical
# Measurement context: mean ± SD, quadruplicate; PBS pH 6.8, 37°C, 5% DMSO; read-out: α-glucosidase inhibition (IC50 μM)
Some compounds, each annotated with its measured IC50.
Write the number in µM without appending the unit.

Here is how some compounds turned out for IC50.
>  <Compound>
CC1(C)CC[C@]2(C(=O)O)CC[C@]3(C)C(=CCC4[C@@]5(C)C/C(=C\c6ccccc6F)[C@H](O)C(C)(C)C5CC[C@]43C)C2C1 (stereo partly drawn)

>  <Unit descriptor>
µM

>  <IC50>
0.83

$$$$
>  <Compound>
CC1(C)CC[C@]2(C(=O)O)CC[C@]3(C)C(=CCC4[C@@]5(C)C/C(=C\c6ccccc6Br)[C@H](O)C(C)(C)C5CC[C@]43C)C2C1 (stereo partly drawn)

>  <Unit descriptor>
µM

>  <IC50>
0.72

$$$$
>  <Compound>
CC1(C)CC[C@]2(C(=O)O)CC[C@]3(C)C(=CCC4[C@@]5(C)C/C(=C\c6ccccc6Cl)[C@H](O)C(C)(C)C5CC[C@]43C)C2C1 (stereo partly drawn)

>  <Unit descriptor>
µM

>  <IC50>
0.88

$$$$
>  <Compound>
CC1(C)CC[C@]2(C(=O)O)CC[C@]3(C)C(=CCC4[C@@]5(C)C/C(=C\c6ccc([N+](=O)[O-])cc6)[C@H](O)C(C)(C)C5CC[C@]43C)C2C1 (stereo partly drawn)

>  <Unit descriptor>
µM

>  <IC50>
1.22

$$$$

Record summary for COc1ccccc1/C=C1\C[C@@]2(C)C(CC[C@]3(C)C2CC=C2C4CC(C)(C)CC[C@]4(C(=O)O)CC[C@]23C)C(C)(C)[C@H]1O (stereo partly drawn) : reported IC50 = 1.92

Record summary for CC1(C)CC[C@]2(C(=O)O)CC[C@]3(C)C(=CCC4[C@@]5(C)C/C(=C\c6ccc(Cl)cc6)[C@H](O)C(C)(C)C5CC[C@]43C)C2C1 (stereo partly drawn) : reported IC50 = 1.73
